- target: hMC4-R (human) (UniProt P32245)
- Sequence (P32245 whole entry): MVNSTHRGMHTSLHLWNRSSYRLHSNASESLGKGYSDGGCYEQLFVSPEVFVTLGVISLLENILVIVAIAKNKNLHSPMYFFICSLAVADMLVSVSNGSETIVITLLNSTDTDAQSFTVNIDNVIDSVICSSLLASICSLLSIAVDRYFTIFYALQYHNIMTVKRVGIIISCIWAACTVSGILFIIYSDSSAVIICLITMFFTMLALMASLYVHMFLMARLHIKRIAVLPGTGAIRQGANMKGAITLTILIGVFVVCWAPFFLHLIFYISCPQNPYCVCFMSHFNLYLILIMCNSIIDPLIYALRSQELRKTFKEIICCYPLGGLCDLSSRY
- assay_notes: cell-based or functional assay
Bridge positions count the residues as written; N and C are the ends. Square brackets hold non-standard residues; d marks the D form. 2Nal = N[C@@H](Cc1ccc2ccccc2c1)C(=O)O; d2Nal = N[C@H](Cc1ccc2ccccc2c1)C(=O)O; Aib = CC(C)(N)C(=O)O
Lab note: anything with cAMP Kb below 6 is marked Yes; values at 6 or higher are marked No.

In plain terms, does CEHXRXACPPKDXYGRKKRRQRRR (N-terminal acetyl; X4=D-2-Nal; X6=Bal; X13=β-Ala; Cys1-Cys8 disulfide; C-terminal amide) come in under 6 for cAMP Kb?
No

In plain terms, does Ac-CEH[d2Nal]R[2Nal][Aib]CPPKD-NH2 (disulfide 1-8; SMILES CC(=O)N[C@H]1CSSC[C@@H](C(=O)N2CCC[C@H]2C(=O)N2CCC[C@H]2C(=O)N[C@@H](CCCCN)C(=O)N[C@@H](CC(=O)O)C(N)=O)NC(=O)C(C)(C)NC(=O)[C@H](Cc2ccc3ccccc3c2)NC(=O)[C@H](CCCNC(=N)N)NC(=O)[C@@H](Cc2ccc3ccccc3c2)NC(=O)[C@H](Cc2c[nH]cn2)NC(=O)[C@H](CCC(=O)O)NC1=O) [Ac-c(Cys-Glu-His-D-2-Nal-Arg-2-Nal-Aib-Cys)-Pro-Pro-Lys-Asp-NH2] come in under 6 for cAMP Kb?
Yes

In plain terms, does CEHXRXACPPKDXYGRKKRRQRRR (N-terminal acetyl; X4=D-2-Nal; X6=2-Nal; X13=β-Ala; Cys1-Cys8 disulfide; C-terminal amide) come in under 6 for cAMP Kb?
No

In plain terms, does Ac-CEH[d2Nal]RWACPPKD-NH2 (disulfide 1-8; SMILES CC(=O)N[C@H]1CSSC[C@@H](C(=O)N2CCC[C@H]2C(=O)N2CCC[C@H]2C(=O)N[C@@H](CCCCN)C(=O)N[C@@H](CC(=O)O)C(N)=O)NC(=O)[C@H](C)NC(=O)[C@H](Cc2c[nH]c3ccccc23)NC(=O)[C@H](CCCNC(=N)N)NC(=O)[C@@H](Cc2ccc3ccccc3c2)NC(=O)[C@H](Cc2c[nH]cn2)NC(=O)[C@H](CCC(=O)O)NC1=O) [Ac-c(Cys-Glu-His-D-2-Nal-Arg-Trp-Ala-Cys)-Pro-Pro-Lys-Asp-NH2] come in under 6 for cAMP Kb?
Yes
